Attribution: patent US10500249B2

# TARGET OR SYSTEM: WNK2 (h) (Homo sapiens, UniProt Q9Y3S1)
# Sequence (Q9Y3S1 whole entry): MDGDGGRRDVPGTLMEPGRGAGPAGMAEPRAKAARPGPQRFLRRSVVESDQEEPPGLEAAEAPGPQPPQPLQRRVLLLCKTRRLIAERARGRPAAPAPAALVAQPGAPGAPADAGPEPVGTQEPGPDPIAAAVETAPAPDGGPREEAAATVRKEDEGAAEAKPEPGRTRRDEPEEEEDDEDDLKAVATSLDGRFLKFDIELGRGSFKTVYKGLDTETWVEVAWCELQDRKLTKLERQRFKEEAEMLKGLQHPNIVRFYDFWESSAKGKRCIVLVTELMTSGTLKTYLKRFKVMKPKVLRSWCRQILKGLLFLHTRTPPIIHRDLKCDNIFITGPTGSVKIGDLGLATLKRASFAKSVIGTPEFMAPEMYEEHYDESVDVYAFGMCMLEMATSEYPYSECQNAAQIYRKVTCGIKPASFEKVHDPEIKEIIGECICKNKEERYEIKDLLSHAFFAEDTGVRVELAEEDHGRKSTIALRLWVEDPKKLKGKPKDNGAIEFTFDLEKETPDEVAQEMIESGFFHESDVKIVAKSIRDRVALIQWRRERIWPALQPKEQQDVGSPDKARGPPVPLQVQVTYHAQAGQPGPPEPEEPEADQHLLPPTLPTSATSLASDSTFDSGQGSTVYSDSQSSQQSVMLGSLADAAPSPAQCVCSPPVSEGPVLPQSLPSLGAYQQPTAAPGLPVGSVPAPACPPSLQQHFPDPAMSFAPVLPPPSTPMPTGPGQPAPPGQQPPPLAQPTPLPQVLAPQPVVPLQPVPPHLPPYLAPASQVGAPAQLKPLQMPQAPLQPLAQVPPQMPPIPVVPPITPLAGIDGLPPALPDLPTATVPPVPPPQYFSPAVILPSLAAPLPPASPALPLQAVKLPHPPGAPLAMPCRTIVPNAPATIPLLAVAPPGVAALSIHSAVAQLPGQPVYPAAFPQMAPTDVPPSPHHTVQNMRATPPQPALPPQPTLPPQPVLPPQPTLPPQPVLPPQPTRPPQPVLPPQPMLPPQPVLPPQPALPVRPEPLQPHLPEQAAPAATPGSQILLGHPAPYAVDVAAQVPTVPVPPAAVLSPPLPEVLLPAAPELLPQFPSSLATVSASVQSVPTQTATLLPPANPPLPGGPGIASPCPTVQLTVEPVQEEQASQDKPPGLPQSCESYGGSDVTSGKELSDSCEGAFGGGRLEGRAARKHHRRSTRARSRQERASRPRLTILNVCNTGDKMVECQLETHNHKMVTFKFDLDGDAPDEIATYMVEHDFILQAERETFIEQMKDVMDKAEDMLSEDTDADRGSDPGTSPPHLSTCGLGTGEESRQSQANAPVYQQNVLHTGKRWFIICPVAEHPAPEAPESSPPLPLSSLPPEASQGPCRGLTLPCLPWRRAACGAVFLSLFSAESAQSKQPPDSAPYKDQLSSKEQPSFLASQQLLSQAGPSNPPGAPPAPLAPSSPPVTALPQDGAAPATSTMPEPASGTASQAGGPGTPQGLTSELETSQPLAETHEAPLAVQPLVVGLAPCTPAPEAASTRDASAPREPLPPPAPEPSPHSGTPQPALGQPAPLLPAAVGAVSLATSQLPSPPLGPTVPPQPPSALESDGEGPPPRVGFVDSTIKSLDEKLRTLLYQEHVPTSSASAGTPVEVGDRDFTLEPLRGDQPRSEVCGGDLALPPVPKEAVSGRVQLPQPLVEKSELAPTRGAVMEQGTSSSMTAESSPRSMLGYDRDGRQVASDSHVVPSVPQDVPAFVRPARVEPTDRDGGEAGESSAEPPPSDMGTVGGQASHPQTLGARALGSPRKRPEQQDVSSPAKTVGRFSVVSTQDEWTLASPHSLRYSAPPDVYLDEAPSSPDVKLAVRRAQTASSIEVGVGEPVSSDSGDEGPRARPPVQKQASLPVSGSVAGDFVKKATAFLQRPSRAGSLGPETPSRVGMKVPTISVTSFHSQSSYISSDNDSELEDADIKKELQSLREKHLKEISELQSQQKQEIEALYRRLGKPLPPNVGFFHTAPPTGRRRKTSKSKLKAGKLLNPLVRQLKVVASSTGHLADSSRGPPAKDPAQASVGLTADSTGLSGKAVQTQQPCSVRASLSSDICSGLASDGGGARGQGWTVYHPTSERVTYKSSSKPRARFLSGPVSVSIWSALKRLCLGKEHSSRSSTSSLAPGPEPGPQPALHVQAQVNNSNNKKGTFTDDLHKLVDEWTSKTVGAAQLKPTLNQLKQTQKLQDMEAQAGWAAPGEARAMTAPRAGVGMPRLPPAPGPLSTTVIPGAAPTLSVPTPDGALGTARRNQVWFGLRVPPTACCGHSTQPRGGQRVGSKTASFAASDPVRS
# ASSAY REMARKS: Kinase Profiling Assay
# Type: biochemical
# STUDY CONDITIONS: 100 μM
MEASURED QUANTITY: % activity
# output: number + unit

Request: I have this sequence here, HRRIKAWLKKIKALARQLGVAA (Mammalian) [MMI-0500] , and I need its recorded % activity.
Result: 8%

Request: Now the sequence KAFAKLAARLYRKALARQLGVAA [MMI-0400]
Result: 54%

Request: // repeat for FAKLAARLYRKALARQLGVAA [MMI-0300] and report
Result: 64%

Request: Item: YARAAARQARAKALNRQLGVA (Mammalian) [MMI-0200]
Result: 94%

====

# TARGET OR SYSTEM: Rsk2 (h) (Homo sapiens)
# Sequence (P51812 whole entry): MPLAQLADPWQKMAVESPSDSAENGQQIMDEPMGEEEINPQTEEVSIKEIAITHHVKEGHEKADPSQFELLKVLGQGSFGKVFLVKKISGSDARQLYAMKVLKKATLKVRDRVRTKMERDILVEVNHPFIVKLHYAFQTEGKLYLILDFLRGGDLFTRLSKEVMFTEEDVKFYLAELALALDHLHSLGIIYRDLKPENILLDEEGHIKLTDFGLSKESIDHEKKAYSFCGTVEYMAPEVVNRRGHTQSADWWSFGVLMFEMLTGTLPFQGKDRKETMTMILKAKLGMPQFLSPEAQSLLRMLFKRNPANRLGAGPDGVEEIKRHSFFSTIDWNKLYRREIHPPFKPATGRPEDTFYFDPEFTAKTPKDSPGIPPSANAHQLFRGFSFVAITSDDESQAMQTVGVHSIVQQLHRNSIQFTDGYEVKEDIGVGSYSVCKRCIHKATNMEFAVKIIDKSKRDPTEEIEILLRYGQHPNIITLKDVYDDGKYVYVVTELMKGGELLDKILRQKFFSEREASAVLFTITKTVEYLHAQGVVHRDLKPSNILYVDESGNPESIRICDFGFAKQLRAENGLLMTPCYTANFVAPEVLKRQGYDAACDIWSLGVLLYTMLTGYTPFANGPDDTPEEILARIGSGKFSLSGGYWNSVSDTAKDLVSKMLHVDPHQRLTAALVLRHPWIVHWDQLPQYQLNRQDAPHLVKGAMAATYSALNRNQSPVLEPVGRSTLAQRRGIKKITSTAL
# ASSAY REMARKS: Kinase Profiling Assay
# Assay type: biochemical
# STUDY CONDITIONS: 100 μM
Give measured % activity for each item. Keep answers brief.
Please state the figure in %; there is no need to write the unit.

Request: Param item = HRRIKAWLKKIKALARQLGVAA (Mammalian) [MMI-0500] ; retrieve measured % activity.
Result: 14

Request: Same question, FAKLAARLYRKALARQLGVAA [MMI-0300] this time
Result: 51

Request: Follow-up item: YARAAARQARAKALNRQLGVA (Mammalian) [MMI-0200]
Result: 101

Request: Try this sequence too: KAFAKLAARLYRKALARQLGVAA [MMI-0400]
Result: 38

====

# TARGET OR SYSTEM: MAPKAP-K2 (h) (Homo sapiens)
# Sequence (P49137 whole entry): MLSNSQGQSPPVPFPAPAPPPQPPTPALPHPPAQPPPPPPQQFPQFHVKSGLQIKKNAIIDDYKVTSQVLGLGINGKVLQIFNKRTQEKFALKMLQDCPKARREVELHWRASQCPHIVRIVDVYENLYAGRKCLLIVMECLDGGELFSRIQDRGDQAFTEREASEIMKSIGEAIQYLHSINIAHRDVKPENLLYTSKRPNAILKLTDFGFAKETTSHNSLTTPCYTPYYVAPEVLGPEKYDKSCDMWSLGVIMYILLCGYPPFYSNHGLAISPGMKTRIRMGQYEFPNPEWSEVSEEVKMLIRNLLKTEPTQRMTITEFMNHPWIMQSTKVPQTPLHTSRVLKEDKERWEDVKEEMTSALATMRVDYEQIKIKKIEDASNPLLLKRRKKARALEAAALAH
# ASSAY REMARKS: Kinase Profiling Assay
# Assay type: biochemical
# STUDY CONDITIONS: 100 μM
MEASURED QUANTITY: % activity (%)
Dear colleague, please return just the value in %, with no unit written.

Request: // fetch MAPKAP-K2 (h) (Homo sapiens) % activity for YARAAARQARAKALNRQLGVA (Mammalian) [MMI-0200]
Result: 35

Request: Repeat for the following sequence: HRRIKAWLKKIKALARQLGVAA (Mammalian) [MMI-0500]
Result: 9

Request: Okay, and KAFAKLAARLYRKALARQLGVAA [MMI-0400] ?
Result: 5

Request: Now the sequence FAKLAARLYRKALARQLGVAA [MMI-0300]
Result: 5

====

# TARGET OR SYSTEM: EphA8 (h) (Homo sapiens)
# Sequence (P29322 28-1005): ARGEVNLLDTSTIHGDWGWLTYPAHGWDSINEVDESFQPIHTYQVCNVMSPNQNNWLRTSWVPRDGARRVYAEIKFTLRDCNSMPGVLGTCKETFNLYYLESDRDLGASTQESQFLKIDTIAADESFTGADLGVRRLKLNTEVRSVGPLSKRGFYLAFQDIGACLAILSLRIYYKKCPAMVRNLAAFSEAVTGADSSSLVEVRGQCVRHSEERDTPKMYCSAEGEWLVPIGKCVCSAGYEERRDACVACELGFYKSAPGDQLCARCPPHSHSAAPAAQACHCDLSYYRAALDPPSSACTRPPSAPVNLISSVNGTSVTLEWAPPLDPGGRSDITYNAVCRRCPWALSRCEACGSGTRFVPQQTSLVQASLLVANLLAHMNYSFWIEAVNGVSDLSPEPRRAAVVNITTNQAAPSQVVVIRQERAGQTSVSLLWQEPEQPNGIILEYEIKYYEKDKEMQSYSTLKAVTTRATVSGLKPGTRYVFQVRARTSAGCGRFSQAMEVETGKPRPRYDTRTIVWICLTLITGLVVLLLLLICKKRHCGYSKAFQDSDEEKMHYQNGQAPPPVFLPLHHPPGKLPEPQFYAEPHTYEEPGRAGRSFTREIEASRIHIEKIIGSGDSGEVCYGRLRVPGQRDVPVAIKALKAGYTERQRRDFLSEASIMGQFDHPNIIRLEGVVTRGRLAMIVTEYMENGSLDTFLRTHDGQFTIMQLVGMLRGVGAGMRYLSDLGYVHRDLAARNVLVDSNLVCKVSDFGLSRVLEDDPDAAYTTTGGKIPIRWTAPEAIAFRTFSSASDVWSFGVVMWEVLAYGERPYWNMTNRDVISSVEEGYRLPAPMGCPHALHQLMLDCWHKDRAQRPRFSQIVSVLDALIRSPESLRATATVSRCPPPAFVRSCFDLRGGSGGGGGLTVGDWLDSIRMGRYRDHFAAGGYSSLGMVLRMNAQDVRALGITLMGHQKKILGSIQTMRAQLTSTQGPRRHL
# ASSAY REMARKS: Kinase Profiling Assay
# Assay type: biochemical
# STUDY CONDITIONS: 100 μM
Give % activity for every item shown.
Quick note: give the figure in %, leave out the unit.

Request: Value lookup for % activity; key = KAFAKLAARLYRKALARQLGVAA [MMI-0400]
Result: 146

Request: Entry to check: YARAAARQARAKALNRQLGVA (Mammalian) [MMI-0200]
Result: 133

Request: // same read-out, input: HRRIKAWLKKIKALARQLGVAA (Mammalian) [MMI-0500]
Result: 337

Request: Try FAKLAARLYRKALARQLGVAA [MMI-0300] next.
Result: 93
